Target: T1, HCV bt-151-171 (Peptide 3, HCVc 151-171) (Hepatitis C virus (numbering per HCV-1), biotin (carboxy-terminal per; N-terminal per))
T1 peptide: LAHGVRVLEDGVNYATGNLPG
Assay: EIA, captured mAb + biotin peptide
Kindly supply the reported Reactivity (OD 492 nm) values for the records listed here.
Give bare numbers, in OD units.

For each of the items listed, what is its Reactivity (OD 492 nm)?
1. HCV 208A-877 (antibody, V domains shown) VH: QLQQSGPELVKPGASVKISCKTSGYTFTENAMHWVKQSRGKSLEWIGGVNPNNGDTVYTQKFKGKATLTVAKSSSTAYMELRTMTCEESTVYYCASREPDFFDYWGQGSSVTVSS VL: QIVLTQSPAIMSVSPGEKVSMTCSASSSVTYMHWYQQKSGTSPKRWIYDTSELASGVPARFSGSGSGTTYSLTISSMEAEDAATYYCQQWSNKPLTFGAGTKLELKR
2. HCV 208A-1064 (antibody, V domains shown) VH: EVQLQQSGPELVKPGASVKISCKTSGYTFTEYAMHWMKQSHGKSLEWIGGINPTNGDTIYNQKFKDKAKLTVDRSSSTAYMELRSLTSDDSALFYCARRELDYFASWGQGTTLTVSS VL: DIVLTQSPASLIVSLGQTATISCRASQSVSTSRFSYLHWIQQKPGQPPKLLIKYASNLESGVPVRFSGSGSGTDFTLNIHPVEEEDTATYFCQHSWEFPFTFGSGTKLKIKR

1. 0.05
2. 0.12
